experiment: qHTS assay to identify aromatase inhibitors - cell viability counter screen (AID 743084); conditions: MCF-7 aro ERE viability, CellTiter-Fluor, 24 h; series mostly up to 70.3 µM;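 further: cells stimulated with testosterone during compound exposure; nearly all actives have a fitted effect of over 55% in size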
Results filed as inconclusive are left out. Activity calls are given as the source filed them. The call rests on the fitted dose curve; in most records, active means well fitted cell-killing curve with a large enough effect in the repeat runs; inconclusive means weak or mixed curves, or effect the other way; inactive means no such curve, though single readings can be large or run the other way.
Outcome (select one): active, inactive

Example entries and their recorded answers appear below.
Prompt: Hi team, can someone confirm the assay call for [Cl][Sn]([Cl])([Cl])[Cl] ?
Response: inactive

Prompt: Status in this test for O=C(O)c1cccc(Cl)c1 ?
Response: inactive

***
Prompt: Look up the recorded call for CS(=O)(=O)c1cc(C(F)(F)F)ccc1C(=O)c1cnoc1C1CC1 in this test.
Response: inactive

Prompt: Give the logged outcome of this assay for the following compound: CCOP(=O)(OCC)OP(=O)(OCC)OCC
Response: inactive

Prompt: Per the records of this test, what outcome belongs to COP(=S)(OC)Oc1c(Cl)cc(C)cc1Cl ?
Response: inactive

Prompt: Status in this test for O=[N+]([O-])c1ccc2c3c(cccc13)CC2 ?
Response: inactive

Prompt: Recorded call for OC(c1ccccc1)(c1ccccc1)C1CCNCC1 ?
Response: inactive

Prompt: So what was the verdict on Nc1cc(Cl)ccc1O in this test?
Response: inactive

Prompt: I'd appreciate the recorded outcome for CCCCN(CCCCO)N=O from this test.
Response: inactive

Prompt: Would you mind telling me which call this test gave CCN(CC)CCOC(=O)C(C)(c1ccccc1)c1ccccc1 ?
Response: inactive
